target: HIV protease (Human immunodeficiency virus type 1 group M subtype B, UniProt P04585); construct: A third viral enzyme known as protease then cleaves the polyproteins; test: Enzymatic Assay for Determining the Inhibition Constant (Ki) of Synthetic Compounds Targeting the HIV Protease (fluorometric FRET assay); type: biochemical
ASSAY_READOUT: pKi
Kindly note that pKi refers to -log10 of the concentration in mol/L and answer with the value alone.

# annotated cases, reported pKi shown
{"COMPOUND_SMILES": "CC(=O)Nc1ccc(S(=O)(=O)N[C@@H](Cc2ccccc2)C(=O)NCCCC[C@@H](C(=O)O)N(CC(C)C)S(=O)(=O)c2ccc(C)cc2)cc1", "pKi": 9.01}
{"COMPOUND_SMILES": "CSCC[C@H](N)C(=O)NCCCC[C@@H](C(=O)O)N(CC(C)C)S(=O)(=O)c1ccc(C)cc1", "pKi": 7.48}
{"COMPOUND_SMILES": "CC(=O)Nc1ccc(S(=O)(=O)N[C@@H](Cc2ccccc2)C(=O)NCCCC[C@@H](CO)N(CC(C)C)S(=O)(=O)c2ccc(C)cc2)cc1", "pKi": 7.64}
{"COMPOUND_SMILES": "Cc1ccc(S(=O)(=O)N(CC(C)C)[C@@H](CCCCNC(=O)[C@H](Cc2ccccc2)NC(=O)OC(C)(C)C)C(=O)O)cc1", "pKi": 8.60}

Next item in the queue.
The molecule Cc1ccc(S(=O)(=O)N(CC(C)C)[C@H](CO)CCCCNC(=O)[C@H](Cc2ccc(F)cc2)NC(=O)OC(C)(C)C)cc1 showed pKi equal to 8.38

* * *

molecular target: HIV protease (Human immunodeficiency virus type 1 group M subtype B); construct: A third viral enzyme known as protease then cleaves the polyproteins; experiment: Enzymatic Assay for Determining the Inhibition Constant (Ki) of Synthetic Compounds Targeting the HIV Protease (fluorometric FRET assay); assay type: biochemical
Recorded pKi by entry
Kindly note that pKi refers to -log10 of the concentration in mol/L and answer with the value alone.

The compound Cc1ccc(S(=O)(=O)N(CC(C)C)[C@@H](CCCCNC(=S)[C@H](Cc2c[nH]c3ccccc23)NS(=O)(=O)c2ccccc2)C(=O)O)cc1 showed pKi equal to 8.32

The compound Cc1ccc(S(=O)(=O)N(CC(C)C)[C@@H](CCCCNC(=O)[C@H](Cc2ccccc2)NC(=O)C(C)(C)C)C(=O)O)cc1 showed pKi equal to 9.26

* * *

molecular target: HIV protease (Human immunodeficiency virus type 1 group M subtype B, UniProt P04585); construct: A third viral enzyme known as protease then cleaves the polyproteins; assay: Enzymatic Assay for Determining the Inhibition Constant (Ki) of Synthetic Compounds Targeting the HIV Protease (fluorometric FRET assay); assay type: biochemical
ASSAY_READOUT: Ki (nM)
Give just the numeric value; nM need not be written.

{"COMPOUND_SMILES": "Cc1ccc(S(=O)(=O)N(CC(C)C)[C@H](CO)CCCCNC(=O)[C@H](Cc2ccccn2)NC(=O)OC(C)(C)C)cc1", "ASSAY_READOUT": "Ki", "OBSERVED_MEASUREMENT": 30}
{"COMPOUND_SMILES": "CC(=O)N[C@@H](Cc1c[nH]c2ccccc12)C(=O)NCCCC[C@@H](CO)N(CC(C)C)S(=O)(=O)c1ccc(N)cc1", "ASSAY_READOUT": "Ki", "OBSERVED_MEASUREMENT": 3.8}
{"COMPOUND_SMILES": "Cc1ccc(S(=O)(=O)N[C@@H](Cc2ccccc2)C(=O)NCCCC[C@@H](C(=O)O)N(CC(C)C)S(=O)(=O)c2ccc(N)cc2)cc1", "ASSAY_READOUT": "Ki", "OBSERVED_MEASUREMENT": 4.1}
{"COMPOUND_SMILES": "Cc1ccc(S(=O)(=O)N(CC(C)C)[C@H](CO)CCCCNC(=O)[C@H](Cc2ccccc2)NC(=O)C(C)(C)C)cc1", "ASSAY_READOUT": "Ki", "OBSERVED_MEASUREMENT": 3.9}
{"COMPOUND_SMILES": "Cc1ccc(S(=O)(=O)N[C@@H](Cc2c[nH]c3ccccc23)C(=S)NCCCC[C@@H](C(=O)O)N(CC(C)C)S(=O)(=O)c2ccc(C)cc2)cc1", "ASSAY_READOUT": "Ki", "OBSERVED_MEASUREMENT": 14}

Next item in the queue.
The molecule Cc1ccc(S(=O)(=O)N[C@H](Cc2ccccc2)C(=O)NCCCC[C@@H](C(=O)O)N(CC(C)C)S(=O)(=O)c2ccc(C)cc2)cc1 showed Ki equal to 120
